Please go through the items and note down their growth inhibition.
Test system: DIPGX9 (diffuse intrinsic pontine glioma line)
Experiment: growth inhibition (% activity, log2 RLU normalised to DMSO / staurosporine); higher = more growth inhibition
Settings: 33 µM
Returns: string containing the numeric result and its unit.

// query Given the entry CCC(NC(C)C)C(O)c1ccc(O)c(O)c1 (configuration not stated) , what growth inhibition was observed with DIPGX9?
// result 1.97%

// query Consider next the molecule CN(C)CCOC(C)(c1ccccc1)c1ccccn1 (configuration not stated) in the same way.
// result -1.25%

// query One more molecule: `Cn1nnc2c(C(N)=O)ncn2c1=O`
// result -1.07%

// query For `C[C@@H]1[C@H](O)[C@@H](C)/C=C/C=C/C=C/C=C/C=C/C=C/C=C/[C@H](O[C@@H]2O[C@H](C)[C@@H](O)[C@H](N)[C@@H]2O)C[C@@H]2O[C@](O)(C[C@@H](O)C[C@@H](O)[C@H](O)CC[C@@H](O)C[C@@H](O)CC(=O)O[C@H]1C)C[C@H](O)[C@H]2C(=O)O` then?
// result 2.51%

// query Here is the next molecule: `CN1CCN(c2c(F)cc3c(=O)c(C(=O)O)cn4c3c2OCN4C)CC1`
// result 2.03%

// query How about `N=C(N)c1ccc2cc(OC(=O)c3ccc(N=C(N)N)cc3)ccc2c1` ?
// result -0.893%

// query Query `CO[C@H]1/C=C/O[C@@]2(C)Oc3c(C)c(O)c4c(O)c(c5c(nc6cc(C)ccn65)c4c3C2=O)NC(=O)/C(C)=C\C=C\[C@H](C)[C@H](O)[C@@H](C)[C@@H](O)[C@@H](C)[C@H](OC(C)=O)[C@@H]1C` next
// result 1.81%

// query Likewise for `C[C@]12C=CC(=O)C=C1CC[C@H]1[C@@H]3C[C@@H](O)[C@](O)(C(=O)CO)[C@@]3(C)C[C@H](O)[C@@]12F` ?
// result 3.73%

// query Lookup `N[C@@H](Cc1ccc(O)c(O)c1)C(=O)O`
// result 0.542%

// query Can you check `CCOC(=O)[C@H](CCc1ccccc1)N[C@H]1CCCN2CCC[C@@H](C(=O)O)N2C1=O` next?
// result 2.7%

// query Please answer likewise for `CC(/C=C1\SC(=S)N(CC(=O)O)C1=O)=C\c1ccccc1`
// result 0.579%

// query Please do the same for `COc1cc([C@@H]2c3cc4c(cc3[C@@H](O[C@@H]3O[C@@H]5CO[C@@H](c6cccs6)O[C@H]5[C@H](O)[C@H]3O)[C@H]3COC(=O)[C@H]23)OCO4)cc(OC)c1O` as well.
// result 47.9%

// query Now try `CC(C)[C@H]1CC[C@H](C(=O)N[C@H](Cc2ccccc2)C(=O)O)CC1` .
// result 0.231%

// query Try this molecule next: `O=C[C@H](O)[C@@H](O)[C@H](O)CO`
// result 1.55%

// query Would you mind doing `CN1CC(=O)N2[C@H](c3ccc4c(c3)OCO4)c3[nH]c4ccccc4c3C[C@@H]2C1=O` as well?
// result 0.257%

// query What about this molecule? CC(C(=O)O)c1cccc(C(=O)c2ccccc2)c1 (configuration not stated)
// result -0.0225%

// query Also check `CN(C)c1ccc(C(=C2C=CC(=[N+](C)C)C=C2)c2ccc(N(C)C)cc2)cc1`
// result 41.4%
